// provenance: PubChem BioAssay AID1996

Assay context: buffer; pH 7.4; 200.0 µM
Readout label: solubility kinetic

Consider the following illustrative entries.
COc1cc(C)c(S(=O)(=O)N2CCOCC2)c(C)c1C :: > 44.9 µg/mL
Cc1ccn2cc(-c3cccc(NC(=O)CCC(=O)O)c3)nc2c1 :: > 48.5 µg/mL

Would you kindly look at the next entry?
Using known records, supply solubility kinetic for `COc1ccc2cc3cc(C(=O)NCCC(C)C)oc3nc2c1` < 0.3 µg/mL

====

Assay context: buffer; pH 7.4; 200.0 µM
Readout label: solubility kinetic

CCOC(=O)Cn1c(=NC(=O)C(C)C)sc2c(C)cc(C)cc21 :: < 0.4 µg/mL
O=C(Nc1cc(C(F)(F)F)ccc1-n1cncn1)C1CC1 :: > 44.4 µg/mL
O=C(NC1CCCC1)C1CC(O)CN1C(=O)Nc1ccccc1 (stereo unspecified) :: > 47.6 µg/mL
NC(=O)Nc1ccc(C(=O)OCC(=O)N2CCCC2=O)cc1 :: > 45.8 µg/mL
OC1(c2ccc(F)cc2)CCN(Cc2cccnc2)CC1 :: > 43 µg/mL
COc1ccc(C(=O)c2ccc(-c3ccc(OC)cc3)nc2)cc1 :: < 0.7 µg/mL

Could you tell me solubility kinetic for each of these compounds? They are listed below.
1. CC1CN(C(=O)COc2ccc3ccccc3c2)CC(C)O1 (stereo unspecified)
2. Cc1ccc(-n2c(SCC(=O)N(C)C3CCS(=O)(=O)C3)nc3ccccc3c2=O)c(C)c1 (stereo unspecified)
3. O=C(NCCCN1CCCC1=O)c1cc2c(s1)CCCCC2
4. CC(C)(C)c1ccc(S(=O)(=O)N2CCN(CC(O)CN3CCOCC3)CC2)cc1 (stereo unspecified)

> 44.9 µg/mL
> 70.7 µg/mL
> 48.1 µg/mL
> 63.8 µg/mL

Please give solubility kinetic for each item listed below.
1. O=C(/C=C1\SC(=O)NC1=O)Nc1ccc(C(=O)O)cc1
2. CN(C)C(=O)Nc1ccccc1
3. CN1C(=O)c2ccc(C(=O)NCc3ccccn3)cc2C1=O
4. COc1ccc(C2c3c(nc[nH]c3=O)Oc3nc[nH]c(=O)c32)cc1
5. COC(=O)c1cccc(NC(=O)C(C)(C)C)c1
6. CCCCN(CCCC)c1nc(-c2ccncc2)nc2ccccc12
7. CCOC(=O)c1c(C)[nH]c(C)c1C(=O)COC(=O)Cc1ccc(OC)c(OC)c1
8. Oc1cccc2ccc(/C=C/c3ccccc3Br)nc12

> 43.8 µg/mL
> 24.6 µg/mL
> 44.3 µg/mL
> 48.6 µg/mL
> 35.3 µg/mL
< 0.2 µg/mL
> 60.5 µg/mL
< 0.7 µg/mL

Please look at the items below and tell me solubility kinetic for each one, in order.
1. CCN(C#N)c1nc(NC(C)C)nc(NC(C)(C)C)n1
2. COc1ccccc1C(=O)Nn1c(C)nc2ccccc2c1=O
3. COc1ccc(C(=O)Nc2ccc(N3CCN(C)CC3)cc2)cc1
4. Cc1ccc(N2CC(C(=O)NCc3ccco3)CC2=O)cc1Cl (stereo unspecified)
5. COc1ccccc1CN(C)C(=O)c1cc(C)nc2ccccc12
6. CCN1CCN(c2ccc(NC(=O)COc3ccc(Cl)cc3C)cc2)CC1
7. Cc1cc(NC(=O)CN2CCN(C)CC2)no1

37 µg/mL
> 46.4 µg/mL
42.7 µg/mL
30.8 µg/mL
> 48.1 µg/mL
5.1 µg/mL
22.4 µg/mL

List the reported solubility kinetic of each compound below.
1. N#Cc1c(Nc2ccccc2)c(C=O)c[nH]c1=O
2. CCN(CC)C(=O)C1CCCN(c2ccc([N+](=O)[O-])cc2)C1 (stereo unspecified)
3. Cc1cccc(-c2nc(Nc3cccc(O)c3)c3ccccc3n2)c1
4. CCC(C)NC(=O)c1ccc(CN2CCc3ccccc3C2)cc1 (stereo unspecified)
5. CCOc1cc(C(=O)NCc2ccco2)cc(OCC)c1OCC
6. Cc1c(-c2ccccc2)cnc2c(C)cccc12
7. O=C(NCC1CCCO1)c1cnc(Cl)c(Cl)c1 (stereo unspecified)
8. CCN(CC)c1ccc(NC(=O)Nc2ccccc2)cc1

["> 35.9 µg/mL", "> 45.8 µg/mL", "1 µg/mL", "7.1 µg/mL", "49.7 µg/mL", "< 0.5 µg/mL", "> 41.3 µg/mL", "4.1 µg/mL"]

Go through the items and report each one's solubility kinetic.
1. O=C(COc1ccccc1O)NCCN1CCOCC1
2. CCc1cc2c(NC3CCCC3)ncnc2s1.Cl
3. O=C(O)c1cc(-c2cccs2)nc2ccc(F)cc12

1. > 42 µg/mL
2. 30.8 µg/mL
3. > 41 µg/mL
